target_or_system: T1, human OX40 on cells (CHO-K1/hu OX40) (human, UniProt P43489 29-277)
T1 sequence (looked up): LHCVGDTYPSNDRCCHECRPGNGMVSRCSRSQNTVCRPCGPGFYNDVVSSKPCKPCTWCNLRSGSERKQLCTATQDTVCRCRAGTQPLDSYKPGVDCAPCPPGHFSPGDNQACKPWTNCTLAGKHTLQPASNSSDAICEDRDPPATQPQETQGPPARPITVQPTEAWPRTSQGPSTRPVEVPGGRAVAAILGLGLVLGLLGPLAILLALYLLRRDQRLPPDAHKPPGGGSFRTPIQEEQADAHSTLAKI
experiment_description: cell-based or functional assay
property_name: Maximum fluorescence signal value, HEK293/OX40/NF-kb luciferase reporter

These solved cases illustrate the format of a correct answer.
PR002069 (antibody, human IgG1, V domains shown, no light chain; also called anti-OX40 HCAb antibody) VH: EVQLLESGGGLVQPGGSLRLSCAASGFTFSSYAMSWVRQAPGKGREWVSAISGGGGNTFYADSVRGRFTISRDNSKNTLYLQMNSLRAEDTAVYYCANGVTGTTDVDYWGQGTLVTVSS : 99700 luminescence
PR002061 (antibody, human IgG1, V domains shown, no light chain; also called anti-OX40 HCAb antibody) VH: EVQLLESGGGLVQPGGSLRLSCAASGFTFSSYAMSWVRQAPGKGLEWVSAISGRGGSTYYADSVRGRFTISRDNSKNTLYLQMNSLRAEDTAVYYCANGMTGTTDVDYWGQGTLVTVSS : 156000 luminescence
PR002055 (antibody, human IgG1, V domains shown, no light chain; also called anti-OX40 HCAb antibody) VH: EVQLLESGGGLVQPGGSLRLSCAASGLTFSSYAMSWVRQAPGKGLEWISAISGGGGSTYYADSVRGRFTISRDNSKNTLYLQMNSLRAEDTAVYYCANGMTGSTDVDYWGQGTLVTVSS : 141000 luminescence
PR002064 (antibody, human IgG1, V domains shown, no light chain; also called anti-OX40 HCAb antibody) VH: EVQLVETGGGLVQPGGSLRLSCAASGFTFSSYAMSWVRQAPGKGQEWVSAISGSGGSTFYADSVRGRFTISRDNSKNTLYLQMSSLRAEDTAVYYCANGMTGTTDVDYWGQGTLVTVSS : 147000 luminescence

Input line: Need Maximum fluorescence signal value, HEK293/OX40/NF-kb luciferase reporter, item PR002062 (antibody, human IgG1, V domains shown, no light chain; also called anti-OX40 HCAb antibody) VH: EVQLLESGGGLVQPGGSLRLSCAASGFTFSSYAMSWVRQAPGKGQEWVSAISGSGGSTFYADSVRGRFTISRDNSKNTLYLQMSSLRAEDTAVYYCANGMTGTTDVDYWGQGTLVTVSS
Output line: 149000 luminescence
